All figures here come from patent US10112937B2.

Biological target: human P2X7 (Homo sapiens (Human))
Sequence (Q99572 whole entry): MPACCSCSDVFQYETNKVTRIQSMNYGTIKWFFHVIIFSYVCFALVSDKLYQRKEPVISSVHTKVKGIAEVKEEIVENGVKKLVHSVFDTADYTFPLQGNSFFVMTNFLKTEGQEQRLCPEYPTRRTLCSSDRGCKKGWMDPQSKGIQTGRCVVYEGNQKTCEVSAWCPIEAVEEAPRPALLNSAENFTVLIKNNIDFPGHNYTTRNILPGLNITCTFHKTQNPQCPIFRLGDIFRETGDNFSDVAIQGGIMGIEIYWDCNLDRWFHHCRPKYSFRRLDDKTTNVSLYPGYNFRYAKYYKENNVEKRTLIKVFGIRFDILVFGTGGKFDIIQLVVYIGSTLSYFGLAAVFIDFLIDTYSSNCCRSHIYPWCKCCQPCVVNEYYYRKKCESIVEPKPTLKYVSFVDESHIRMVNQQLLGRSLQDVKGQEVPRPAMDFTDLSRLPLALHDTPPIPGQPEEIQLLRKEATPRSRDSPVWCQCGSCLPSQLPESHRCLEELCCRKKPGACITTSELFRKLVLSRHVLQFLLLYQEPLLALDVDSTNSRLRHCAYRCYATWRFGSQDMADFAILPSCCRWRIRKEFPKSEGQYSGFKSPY
Experiment: P2X7 antagonism in human PBMCs (IL-1β release after LPS + Bz-ATP, ELISA)
Format: cell-based
Details: human PBMCs, test compound 10 μM

molecule	assayed_target	PBMC 10 μM (% control)
CC1c2nnn(-c3ncccc3F)c2CCN1C(=O)c1cccc(C(F)(F)F)c1Cl (stereo not shown) [Example 84]	human P2X7 (Homo sapiens (Human))	8.5 % control
O=C(c1ccc(Cl)cc1Cl)N1CCc2c(ncn2-c2ccc(F)cn2)C1 [Example 313]	human P2X7 (Homo sapiens (Human))	−5.4 % control
CC1Cc2c(nnn2-c2cc[nH]n2)CN1C(=O)c1cccc(C(F)(F)F)c1Cl (stereo not shown) [Example 210]	human P2X7 (Homo sapiens (Human))	0.8 % control
Cc1cc(-n2nnc3c2CCN(C(=O)c2ccc(Cl)c(C(F)(F)F)c2)C3C)ncc1F (stereo not shown) [Example 364]	human P2X7 (Homo sapiens (Human))	4.8 % control
Cc1ccnc(-n2nnc3c2CCN(C(=O)c2cccc(Cl)c2Cl)C3C)n1 (stereo not shown) [Example 225]	human P2X7 (Homo sapiens (Human))	−1.0 % control
CC1Cc2c(nnn2-c2ncc(F)cn2)CN1C(=O)c1ccc(Cl)c(F)c1Cl (stereo not shown) [Example 216]	human P2X7 (Homo sapiens (Human))	0.6 % control
Cc1ccnc(-n2nnc3c2CCN(C(=O)c2ccnc(C(F)(F)F)c2Cl)[C@H]3C)c1 (single isomer, unassigned) [Example 360]	human P2X7 (Homo sapiens (Human))	−7.1 % control
Cc1ccnc(-n2nnc3c2CCN(C(=O)c2cccc(Cl)c2Cl)C3C)c1 (stereo not shown) [Example 237]	human P2X7 (Homo sapiens (Human))	−5.1 % control
Cc1ccnc(-n2nnc3c2CCN(C(=O)c2cccc(Cl)c2Cl)[C@H]3C)n1 (single isomer, unassigned) [Example 392]	human P2X7 (Homo sapiens (Human))	14.4 % control
CC1c2nnn(-c3cccc(C(F)(F)F)n3)c2CCN1C(=O)c1cccc(C(F)(F)F)c1Cl (stereo not shown) [Example 378]	human P2X7 (Homo sapiens (Human))	−0.1 % control
O=C(c1cccc(C(F)(F)F)c1F)N1CCc2c(nnn2-c2ncccn2)C1 [Example 66]	human P2X7 (Homo sapiens (Human))	2.7 % control
Cc1c(C(=O)N2CCc3c(nnn3-c3ncccn3)[C@@H]2C)cccc1C(F)(F)F (single isomer, unassigned) [Example 197]	human P2X7 (Homo sapiens (Human))	2.1 % control
Cc1cc(-n2nnc3c2CCN(C(=O)c2cc(Cl)cc(C(F)(F)F)c2)[C@@H]3C)ncc1F (single isomer, unassigned) [Example 362]	human P2X7 (Homo sapiens (Human))	90.2 % control
CC1c2nnn(-c3cc[nH]n3)c2C=CN1C(=O)c1cccc(C(F)(F)F)c1Cl (stereo not shown) [Example 86]	human P2X7 (Homo sapiens (Human))	13.0 % control
Cc1c(C(=O)N2CCc3c(ncn3-c3ccc(F)cn3)C2)cccc1C(F)(F)F [Example 312]	human P2X7 (Homo sapiens (Human))	9.5 % control
CCc1nc2c(n1-c1ccccc1)CCN(C(=O)c1cccc(C(F)(F)F)c1Cl)C2C (stereo not shown) [Example 184]	human P2X7 (Homo sapiens (Human))	−0.7 % control
